Numbers sourced from ChEMBL document CHEMBL4680313.

Molecular target: D(2) dopamine receptor (Homo sapiens, UniProt P14416)
Sequence (P14416 whole entry): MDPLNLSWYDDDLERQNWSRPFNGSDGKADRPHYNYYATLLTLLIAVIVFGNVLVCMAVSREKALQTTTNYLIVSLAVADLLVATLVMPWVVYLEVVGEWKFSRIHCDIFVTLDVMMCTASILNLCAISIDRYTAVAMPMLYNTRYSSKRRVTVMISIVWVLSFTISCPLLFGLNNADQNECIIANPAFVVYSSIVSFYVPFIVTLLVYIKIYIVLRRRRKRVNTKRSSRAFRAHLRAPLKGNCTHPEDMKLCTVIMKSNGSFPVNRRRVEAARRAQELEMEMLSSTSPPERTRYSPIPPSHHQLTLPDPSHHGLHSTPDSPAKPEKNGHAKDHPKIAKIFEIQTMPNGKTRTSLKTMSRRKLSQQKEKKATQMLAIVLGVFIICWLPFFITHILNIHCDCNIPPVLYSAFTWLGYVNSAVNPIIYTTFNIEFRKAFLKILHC
Note to self: use 1 only for Ki readings below 0.4 µM; a reading exactly at 0.4 µM still gets -1.

Ask | For O=C1c2ccc(F)cc2CC1CCN1CCCN(c2ccccn2)CC1 (centres undefined) , is the recorded Ki below the cut-off of 0.4 µM?
Reply | -1

Ask | For Fc1ccc2c(c1)CC(CCN1CCCN(c3ccccn3)CC1)C2 (centres undefined) , is the recorded Ki below the cut-off of 0.4 µM?
Reply | -1

Ask | For O=C1c2ccc(F)cc2CC1CCN1CCCN(c2ccc(Cl)cn2)CC1 (centres undefined) , is the recorded Ki below the cut-off of 0.4 µM?
Reply | 1

Ask | For O=C(CCCN1C2CCC1CN(c1ccc(Cl)cn1)C2)c1ccc(F)cc1 , is the recorded Ki below the cut-off of 0.4 µM?
Reply | -1

Ask | For O=C(CCCN1CCCN(c2ccc(Cl)cn2)CC1)c1ccc(F)cc1 , is the recorded Ki below the cut-off of 0.4 µM?
Reply | 1

Ask | For O=C(CCCN1CCCN(c2ccccn2)CC1)c1ccc(F)cc1 , is the recorded Ki below the cut-off of 0.4 µM?
Reply | 1

Ask | For Fc1ccc(CCCCN2CCN(c3ccc(-c4ccccc4)cn3)CC2)cc1 , is the recorded Ki below the cut-off of 0.4 µM?
Reply | -1

Ask | For O=C(CCCN1CCN(c2cccnc2)CC1)c1ccc(F)cc1 , is the recorded Ki below the cut-off of 0.4 µM?
Reply | -1

Ask | For Fc1ccc(CCCCN2CCN(c3cccc(-c4ccccc4)n3)CC2)cc1 , is the recorded Ki below the cut-off of 0.4 µM?
Reply | -1
